# Experiment summary: HILIC, Merck SeQuant ZIC-HILIC, 25 °C, 0.25 mL/min; A: water + 16 mM ammonium formate; B: acetonitrile + 0.1% formic acid, pH 3; gradient (min/%B) 0/97 2/97 10/70 15/10 17/10 18/97 25/97
# Measurement parameters: stereoisomer not certain
Endpoint label: LC retention time (min)

Examples with answers:
Molecule	Endpoint label	Assay result
CC(=O)NCCc1c[nH]c2ccc(O)cc12	LC retention time	2.15
NCCP(=O)(O)O [(2-AMINOETHYL)PHOSPHONATE]	LC retention time	15
COC(=O)Cc1ccc(O)cc1 [Methyl 4-hydroxyphenylacetate]	LC retention time	1.67
CN1C(=O)CCC1c1cccnc1 (stereo not given)	LC retention time	2.21
CC(=O)NCCCC(=O)O [4-ACETAMIDOBUTANOATE]	LC retention time	2.87
OCC1OC(OCC2OC(OCC3OC(OC4(CO)OC(CO)C(O)C4O)C(O)C(O)C3O)C(O)C(O)C2O)C(O)C(O)C1O (stereo not given)	LC retention time	15.1
CCCCCCCCCCCCCCCC(=O)OCC(O)COP(=O)(O)OCCN (stereo not given)	LC retention time	10.2
C=C1CCC(O)CC1=CC=C1CCCC2(C)C1CCC2C(C)C=CC(C)C(C)C (stereo not given) [VITAMIN D2]	LC retention time	1.55

(I) O=C(O)c1ccc2ccccc2n1 [2-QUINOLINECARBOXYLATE]
(II) Nc1nc2c(ncn2C2OC(CO)C(O)C2O)c(=O)[nH]1 (stereo not given)
input: I would appreciate it if you could say which entry, I or II , has the lower LC retention time value. State your choice using its label.
output: I

(A) C#CC1(O)CCC2C3CCc4cc(O)ccc4C3CCC21C (stereo not given) [17a-Ethynylestradiol]
(B) CC(=O)NC(CCC(=O)O)C(=O)O (stereo not given) [N-ACETYLGLUTAMATE]
(C) OCC1OC(O)CC1O (stereo not given)
input: Rank descending by LC retention time. Lab note: record answer as labels in requested order.
output: C, B, A
(C: 13 min, B: 8.36 min, A: 1.68 min)

(P) O=C(O)C(=O)CCc1ccccc1
(Q) NC(=O)c1ccc[n+](C2OC(COP(=O)([O-])O)C(O)C2O)c1 (stereo not given) [NICOTINAMIDE MONONUCLEOTIDE]
input: I would appreciate it if you could say which entry, P or Q , has the lower LC retention time value. State your choice using its label.
output: P
